The reported numbers originate from patent US9976183B2.

System: MDA-MB-231
Experiment: Drug sensitivity, MTS cell viability assay (GI50)
Assay type: cell-based
Conditions: Homo sapiens, MDA-MB-231, 96 h
In this section, each of the compounds is paired with its reported log10 GI50.
// units: nM (pre-log); metric: GI50; scale: log10

Solved entries:
# MOLECULE, log10 GI50
data = [
    ("CC[C@@]1(O)C(=O)OCc2c1cc1n(c2=O)Cc2cc3c(CN(C)C)c(O)ccc3nc2-1", 2.54),
    ("CC(=O)O[C@H]1C(=O)[C@@]2(C)[C@H]([C@H](OC(=O)c3ccccc3)[C@]3(O)C[C@H](OC(=O)[C@H](O)[C@@H](NC(=O)c4ccccc4)c4ccccc4)C(C)=C1C3(C)C)[C@]1(OC(C)=O)CO[C@@H]1C[C@@H]2O", 0.48),
    ("CNC(=O)c1cc(Oc2ccc(NC(=O)Nc3ccc(Cl)c(C(F)(F)F)c3)cc2)ccn1", 3.48),
]

Lab note: measured log10 GI50 of `COc1ccc(Oc2cc(C)c(-c3csc(NC(=O)c4ccncc4)n3)c(C)c2)cc1` was 1.64

Lab note: measured log10 GI50 of `COCCOc1cnc(Sc2cc(C)c(-c3csc(NC(=O)c4ccncc4)n3)c(C)c2)cn1` was 1.22
